src = patent US9850283B2

Overview of reported pIC50 across a group of compounds:
Molecular target: Human PD-L1/PD-1 (Homo sapiens, UniProt Q9NZQ7)
Construct: made in house; host or cells: HEK293T
Sequence (Q9NZQ7 with tags, fused parts or gaps): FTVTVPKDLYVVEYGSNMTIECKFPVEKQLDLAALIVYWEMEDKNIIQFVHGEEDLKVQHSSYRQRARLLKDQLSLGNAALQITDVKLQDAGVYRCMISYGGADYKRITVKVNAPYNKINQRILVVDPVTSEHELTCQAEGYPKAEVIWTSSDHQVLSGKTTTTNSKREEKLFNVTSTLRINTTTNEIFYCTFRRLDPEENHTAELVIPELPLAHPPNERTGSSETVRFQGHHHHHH
Test: HTRF PD-1-Ig/PD-L1-His binding assay (human PD-L1)
Conditions: cluster symbol; read-out: HTRF IC50 cluster
pIC50: −log10 of the molar value. Positions of bridges follow the written chain, without caps; N, C: chain ends. Non-standard residues stand in square brackets, D forms with d. Residues, ends and D or L forms follow the SMILES beside them. Ala(indol-4-yl) = N[C@@H](Cc1cccc2[nH]ccc12)C(=O)O; Phe(3,4,5-F3) = N[C@@H](Cc1cc(F)c(F)c(F)c1)C(=O)O; Phe(4-CH2NH2) = NCc1ccc(C[C@H](N)C(=O)O)cc1; Phe(3-Cl) = N[C@@H](Cc1cccc(Cl)c1)C(=O)O; Phe(4-F) = N[C@@H](Cc1ccc(F)cc1)C(=O)O; Bta = N[C@@H](Cc1csc2ccccc12)C(=O)O; Hyp = O=C(O)[C@@H]1C[C@@H](O)CN1; NMeF = CN[C@@H](Cc1ccccc1)C(=O)O; hPhe = N[C@@H](CCc1ccccc1)C(=O)O; NMeNle = CCCC[C@H](NC)C(=O)O; NMeA = CN[C@@H](C)C(=O)O; Dap = NC[C@H](N)C(=O)O; Sar = CNCC(=O)O
measurement-label: pIC50

INSERT INTO assay_data (compound, recorded_value) VALUES
  ('CCCC[C@H]1C(=O)N(C)[C@@H](CCCC)C(=O)N[C@@H](C)C(=O)N[C@H](C(=O)NCC(N)=O)CSCC(=O)N[C@@H](Cc2ccc(O)cc2)C(=O)N(C)[C@@H](C)C(=O)N[C@@H](CC(=O)O)C(=O)N2CCC[C@H]2C(=O)N[C@@H](CN)C(=O)N[C@@H](CC(C)C)C(=O)N2C[C@H](O)C[C@H]2C(=O)N[C@@H](Cc2c[nH]c3ccccc23)C(=O)N[C@@H](CO)C(=O)N[C@@H](Cc2c[nH]c3ccccc23)C(=O)N1C [Example 1138] ({CH2CO}-Y[NMeA]DP[Dap]L[Hyp]WSW[NMeNle][NMeNle]ACG-NH2; thioether N-14)', '7.52 to 8.17'),
  ('CCCC[C@H]1C(=O)N(C)[C@@H](CCCC)C(=O)N[C@@H](C)C(=O)N[C@H](C(=O)NCC(N)=O)CSCC(=O)N[C@@H](Cc2ccc(O)cc2)C(=O)N(C)[C@@H](C)C(=O)N[C@@H](CC(N)=O)C(=O)N2CCC[C@H]2C(=O)N[C@@H](Cc2cnc[nH]2)C(=O)N[C@@H](CC(C)C)C(=O)N2C[C@H](O)C[C@H]2C(=O)N[C@@H](Cc2c[nH]c3ccccc23)C(=O)N[C@@H](CCN)C(=O)N[C@@H](Cc2c[nH]c3ccccc23)C(=O)N1C', '8.17 to 9.41'),
  ('CCCC[C@H]1C(=O)N(C)CC(=O)N[C@@H](CC(=O)O)C(=O)N[C@@H](C(C)C)C(=O)N(C)[C@@H](Cc2ccccc2)C(=O)N[C@@H](Cc2ccc(O)cc2)C(=O)N(C)CC(=O)N[C@@H](Cc2cccc3[nH]ccc23)C(=O)N[C@@H](Cc2ccc(O)cc2)C(=O)N[C@@H](CC(C)C)C(=O)N[C@H](C(=O)NCC(N)=O)CSCC(=O)N[C@@H](Cc2ccccc2)C(=O)N(C)[C@@H](Cc2ccccc2)C(=O)N1C [Example 3071] ({CH2CO}-F[NMeF][NMeNle][Sar]DV[NMeF]Y[Sar][Ala(indol-4-yl)]YLCG-NH2; thioether N-13)', '7.52 to 8.17'),
  ('CCCC[C@H]1C(=O)N(C)CC(=O)N[C@@H](CC(=O)O)C(=O)N[C@@H](C(C)C)C(=O)N(C)[C@@H](Cc2ccccc2)C(=O)N[C@@H](Cc2ccc(O)cc2)C(=O)N(C)CC(=O)N[C@@H](Cc2csc3ccccc23)C(=O)N[C@@H](Cc2ccc(O)cc2)C(=O)N[C@@H](CC(C)C)C(=O)N[C@H](C(=O)NCC(N)=O)CSCC(=O)N[C@@H](Cc2ccc(F)cc2)C(=O)N(C)[C@@H](Cc2ccccc2)C(=O)N1C [Example 3116] ({CH2CO}-[Phe(4-F)][NMeF][NMeNle][Sar]DV[NMeF]Y[Sar][Bta]YLCG-NH2; thioether N-13)', '8.17 to 9.41'),
  ('CCCC[C@H]1C(=O)N(C)CC(=O)N[C@@H](CC(=O)O)C(=O)N[C@@H](C(C)C)C(=O)N(C)[C@@H](Cc2ccccc2)C(=O)N[C@@H](Cc2ccc(O)cc2)C(=O)N(C)CC(=O)N[C@@H](Cc2c[nH]c3ccccc23)C(=O)N[C@@H](Cc2ccc(O)cc2)C(=O)N[C@@H](CC(C)C)C(=O)N[C@H](C(=O)NCC(N)=O)CSCC(=O)N[C@@H](CCc2ccccc2)C(=O)N(C)[C@@H](Cc2ccccc2)C(=O)N1C [Example 3082] ({CH2CO}-[hPhe][NMeF][NMeNle][Sar]DV[NMeF]Y[Sar]WYLCG-NH2; thioether N-13)', '< 7.52'),
  ('CCCC[C@H]1C(=O)N(C)CC(=O)N[C@@H](CC(=O)O)C(=O)N[C@@H](C(C)C)C(=O)N(C)[C@@H](Cc2ccccc2)C(=O)N[C@@H](Cc2ccc(CN)cc2)C(=O)N(C)CC(=O)N[C@@H](Cc2csc3ccccc23)C(=O)N[C@@H](Cc2ccc(O)cc2)C(=O)N[C@@H](CC(C)C)C(=O)N[C@H](C(=O)NCC(N)=O)CSCC(=O)N[C@@H](Cc2cccc(Cl)c2)C(=O)N(C)[C@@H](Cc2ccccc2)C(=O)N1C [Example 3118] ({CH2CO}-[Phe(3-Cl)][NMeF][NMeNle][Sar]DV[NMeF][Phe(4-CH2NH2)][Sar][Bta]YLCG-NH2; thioether N-13)', '7.52 to 8.17'),
  ('CCCC[C@H]1C(=O)N(C)[C@@H](CCCC)C(=O)N[C@@H](CCCNC(=N)N)C(=O)N[C@H](C(=O)NCC(N)=O)CSCC(=O)N[C@@H](Cc2ccccc2)C(=O)N(C)[C@@H](C)C(=O)N[C@@H](CC(N)=O)C(=O)N2CCC[C@H]2C(=O)N[C@@H](Cc2cnc[nH]2)C(=O)N[C@@H](Cc2cnc[nH]2)C(=O)N(C)CC(=O)N[C@@H](Cc2c[nH]c3ccccc23)C(=O)N[C@@H](CO)C(=O)N[C@@H](Cc2c[nH]c3ccccc23)C(=O)N1C [Example 6008] ({CH2CO}-F[NMeA]NPHH[Sar]WSW[NMeNle][NMeNle]RCG-NH2; thioether N-14)', '< 7.52'),
  ('CCCC[C@H]1C(=O)N(C)CC(=O)N[C@@H](CC(=O)O)C(=O)N[C@@H](C(C)C)C(=O)N(C)[C@@H](Cc2ccccc2)C(=O)N[C@@H](Cc2ccc(O)cc2)C(=O)N(C)CC(=O)N[C@@H](Cc2c[nH]c3ccccc23)C(=O)N[C@@H](Cc2ccc(O)cc2)C(=O)N[C@@H](CC(C)C)C(=O)N[C@H](C(=O)NCC(N)=O)CSCC(=O)N[C@@H](Cc2cc(F)c(F)c(F)c2)C(=O)N(C)[C@@H](Cc2ccccc2)C(=O)N1C [Example 3144] ({CH2CO}-[Phe(3,4,5-F3)][NMeF][NMeNle][Sar]DV[NMeF]Y[Sar]WYLCG-NH2; thioether N-13)', '7.52 to 8.17');

====

Target: Human PD-L1/PD-1 (Homo sapiens, UniProt Q9NZQ7)
Construct: made in house; host or cells: HEK293T
Assay: HTRF PD-1-Ig/PD-L1-His binding assay (human PD-L1)
Details: cluster symbol; read-out: HTRF IC50 cluster
Positions of bridges follow the written chain, without caps; N, C: chain ends. Non-standard residues stand in square brackets, D forms with d. Residues, ends and D or L forms follow the SMILES beside them. ξ: configuration not given here. Bta = N[C@@H](Cc1csc2ccccc12)C(=O)O; Hyp = O=C(O)[C@@H]1C[C@@H](O)CN1; NMeNle = CCCC[C@H](NC)C(=O)O; NMeA = CN[C@@H](C)C(=O)O; Dap = NC[C@H](N)C(=O)O; ξOrn = NCCCC(N)C(=O)O; ξP = O=C(O)C1CCCN1; ξC = NC(CS)C(=O)O
Overview of reported IC50 across a group of compounds:
measurement-label: IC50

INSERT INTO results (compound, measurement_label, recorded_value) VALUES
  ('CCCC[C@H]1C(=O)N(C)[C@@H](CCCC)C(=O)NC(CCCN)C(=O)N[C@H](C(=O)NCC(N)=O)CSCC(=O)N[C@@H](Cc2ccc(O)cc2)C(=O)N(C)[C@@H](C)C(=O)N[C@@H](CC(N)=O)C(=O)N2CCCC2C(=O)N[C@@H](Cc2cnc[nH]2)C(=O)N[C@@H](CC(C)C)C(=O)N2CCC[C@H]2C(=O)N[C@@H](Cc2c[nH]c3ccccc23)C(=O)N[C@@H](CO)C(=O)N[C@@H](Cc2csc3ccccc23)C(=O)N1C (stereo partly shown) [Example 1042] ({CH2CO}-Y[NMeA]N[ξP]HLPWS[Bta][NMeNle][NMeNle][ξOrn]CG-NH2; thioether N-14)', 'IC50', '0.385 to 6.74 nM'),
  ('CCCC[C@H]1C(=O)N(C)[C@@H](CCCC)C(=O)N[C@@H](CCCNC(=N)N)C(=O)N[C@H](C(=O)NCC(N)=O)CSCC(=O)N[C@@H](Cc2ccccc2)C(=O)N(C)[C@@H](C)C(=O)N[C@@H](CC(N)=O)C(=O)N2CCC[C@H]2C(=O)N[C@@H](Cc2cnc[nH]2)C(=O)N[C@@H](CC(C)C)C(=O)N[C@@H](CC(N)=O)C(=O)N[C@@H](Cc2c[nH]c3ccccc23)C(=O)N[C@@H](CO)C(=O)N[C@@H](Cc2c[nH]c3ccccc23)C(=O)N1C [Example 1075] ({CH2CO}-F[NMeA]NPHLNWSW[NMeNle][NMeNle]RCG-NH2; thioether N-14)', 'IC50', '> 30.5 nM'),
  ('CCCC[C@H]1C(=O)N(C)[C@@H](CCCC)C(=O)N[C@@H](CCCNC(=N)N)C(=O)NC(C(=O)NCC(N)=O)CSCC(=O)N[C@@H](Cc2ccc(O)cc2)C(=O)N(C)[C@@H](C)C(=O)N[C@@H](CC(N)=O)C(=O)N2CCC[C@H]2C(=O)N[C@@H](CC(N)=O)C(=O)N[C@@H](CC(C)C)C(=O)N2C[C@H](O)C[C@H]2C(=O)N[C@@H](Cc2c[nH]c3ccccc23)C(=O)N[C@@H](CO)C(=O)N[C@@H](Cc2c[nH]c3ccccc23)C(=O)N1C (stereo partly shown) [Example 9061] ({CH2CO}-Y[NMeA]NPNL[Hyp]WSW[NMeNle][NMeNle]R[ξC]G-NH2; thioether N-14)', 'IC50', '0.385 to 6.74 nM'),
  ('CCCC[C@H]1C(=O)N(C)[C@@H](CCCC)C(=O)N[C@@H](CCCNC(=N)N)C(=O)N[C@H](C(=O)NCC(N)=O)CSCC(=O)N[C@@H](Cc2ccc(O)cc2)C(=O)N(C)[C@@H](C)C(=O)N[C@@H](CC(N)=O)C(=O)N2CCC[C@H]2C(=O)N[C@@H](CN)C(=O)N[C@@H](CCC(=O)O)C(=O)N2CCC[C@H]2C(=O)N[C@@H](Cc2c[nH]c3ccccc23)C(=O)N[C@@H](CO)C(=O)N[C@@H](Cc2csc3ccccc23)C(=O)N1C [Example 1127] ({CH2CO}-Y[NMeA]NP[Dap]EPWS[Bta][NMeNle][NMeNle]RCG-NH2; thioether N-14)', 'IC50', '0.385 to 6.74 nM');
